pKd: −log10 of the molar value.
Dear all, this message contains pKd results, target or system JAK2 (Homo sapiens, UniProt O60674).

Please review the following examples before continuing.
compound | target desc | pKd
Fc1ccc(C(F)(F)c2nc(Nc3cc[nH]n3)c3ccsc3n2)cc1 | JAK2 (Homo sapiens, UniProt O60674) | ≥ 9.00
Cc1cc2c(Nc3cc[nH]n3)nc(C(O)c3ccc(F)cc3)nc2s1 (racemic) | JAK2 (Homo sapiens, UniProt O60674) | ≥ 9.00

Please look at the items below and tell me pKd for each one, in order.
1. Fc1ccc(C(F)(F)c2nc(Nc3cc[nH]n3)c3sccc3n2)cc1
2. Cc1cc2c(Nc3cn(C)cn3)nc(C(O)c3ccc(F)cc3)nc2s1 (stereo not drawn)
3. Cc1cc2c(Nc3cc[nH]n3)nc(C(F)(F)c3ccc(F)cc3)nc2s1
4. Cc1cc(Nc2nc(C(O)c3ccc(F)cc3)nc3scc(C)c23)n[nH]1 (racemic)

A.
["≥ 9.00", "≥ 9.00", "8.00 to 9.00", "< 8.00"]

Please look at the items below and tell me pKd for each one, in order.
1. Cc1cc(Nc2nc(C(F)(F)c3ccc(F)cc3)nc3ccsc23)n[nH]1
2. Cc1cc(Nc2nc(C(O)c3ccc(F)cc3)nc3sc(C)cc23)n[nH]1 (racemic)
3. COC(c1ccc(F)cc1)c1nc(Nc2cc(C)[nH]n2)c2sccc2n1 (stereo not drawn)

A.
["≥ 9.00", "≥ 9.00", "8.00 to 9.00"]
